experiment: yeast display, Sf9 membrane polyspecificity reagent, FACS + sequencing; frameworks hold sequencing errors
MEASURED_QUANTITY: polyreactivity (PSR sort gate)

1) QVQLVESGGGLVQAGGSLRLSCAASGIIFGLYAMGWYRQAPGKERELVAAITRSGGRTYYADSVKGRFTISRDNAKNTVYFQMNSLKPEDTAVYFCAADASGHSYDYWGQGTEVTVSS high polyreactivity
2) QVQLVESGGGLVQAGGSLRLSCAASGRTLNWYAMGWYRQAPGKERELVAVINLSGGRTYYADSVKGRFTISRDNAKNTVYLQMNSLKPEDTAVYYCNAPSVWERSYEKYDYWGQATQVTVSS low polyreactivity
3) HVQLVESGGGLVQAGGSLRLSCAASGRTLGSYAIGWYRQAPGKARELVAAISGGSTNYADSVKGRFTISRDNAKNTVYLQMNRLKPEDTAVYYCAADPYGYLYDSWGQGTQVTVSS low polyreactivity
4) QVQLVESGGGLVQAGGSLRLSCAASGSIFPPNAMGWYRQAPGKERELVAGISQSGGSTYYADSVKGRFTISRDNAKNTVYLQMNSLKPEDTAVYYCARSFYSGRRYYYWGQGTQVTVSS high polyreactivity

Query: polyreactivity (PSR sort gate); subject: QVQLVESGGGLVQAGGSLRLSCAASGRIFYYNAIGWYRQAPGKERELVATITRAGGTYYADSVKGRFTISRDNAKNTVYLQMNSLKPEDTAVYYCAKRHPIVDDYKGDYWGQGTQVTVSS
Response: low polyreactivity
